Exercise: state measured Population Normal (%) for each of the compounds provided.
# Test system: HEK-293T
# Assay remarks: Multiplex assay against HEK293T
# Assay type: toxicity, cell-based
# Test context: human, 48 h, 1 µM, compound concentration 1 uM, replicate 2
One number for each entry, in %.

[[record]]
compound = "Cc1sc2c(c1C)C(c1ccc(Cl)cc1)=N[C@@H](CC(=O)NCCCCCCCCNC(=O)COc1cccc3c1C(=O)N(C1CCC(=O)NC1=O)C3=O)c1nnc(C)n1-2 (some centres undefined)"
numeric_readout = 84

[[record]]
compound = "N#Cc1cc(F)cc(-c2nc(-c3ccc(F)cn3)no2)c1"
numeric_readout = 99

[[record]]
compound = "O=C(NCCN1CCC(n2c(=O)[nH]c3cc(Cl)ccc32)CC1)c1ccc(F)cc1 [HALOPEMIDE]"
numeric_readout = 96

[[record]]
compound = "Cc1cccc(NC(=O)CN2CCC(c3ccccn3)CC2)c1.Cl.Cl"
numeric_readout = 95


List reported Population Normal (%) for each of these compounds:
1. CC(/C=C1\SC(=S)N(CCCC(=O)Nc2ccc(C(=O)O)c(O)c2)C1=O)=C\c1ccccc1
2. CC(=O)Nc1cccc2c1c(Sc1ccc(Cl)cc1)c(C)n2CC(=O)O
3. CN(C)C(=O)Cn1cc(-c2ccc(-c3cncc4ccccc34)cc2)cn1
4. Cc1cnc(-c2cc(N3CCN(C(=O)CCS(C)(=O)=O)CC3)ncc2Cl)c(C)c1
5. Cc1c(CC(=O)O)c2cccnc2n1Cc1ccc(S(C)(=O)=O)cc1C(F)(F)F

Data returned:
1. 94
2. 96
3. 94
4. 97
5. 97

====

Give Population Normal (%) for every item shown.
# System: HEK-293T
# Assay remarks: Multiplex assay against HEK293T
# Format: toxicity, cell-based
# Test context: human, 12 h, 1 µM, compound concentration 1 uM, replicate 1
Numbers only, in %.

[[record]]
compound = "NCCc1cn(S(=O)(=O)c2c(Cl)nc3sccn23)c2ccccc12.O=C(O)C(=O)O"
unit_symbol = "%"
numeric_readout = 92

[[record]]
compound = "CCCCCC(O)/C=C/[C@H]1C(=O)CC(O)C1C/C=C\\CCCC(=O)O (some centres undefined)"
unit_symbol = "%"
numeric_readout = 91

[[record]]
compound = "N#Cc1c(Oc2cccc(OS(=O)(=O)CCCC(F)(F)F)c2)cccc1C(F)(F)F"
unit_symbol = "%"
numeric_readout = 94


For each of the compounds below, note its Population Normal (%).
1. CN[C@@H](C)C(=O)N[C@H](C(=O)N1CCC[C@H]1C(=O)Nc1snnc1-c1ccccc1)C1CCCCC1 [GDC-0152]
2. Cc1sc2c(c1C)C(c1ccc(Cl)cc1)=N[C@@H](CC(=O)NCCCCCCCCNC(=O)COc1cccc3c1C(=O)N(C1CCC(=O)NC1=O)C3=O)c1nnc(C)n1-2 (some centres undefined)
3. CC[C@@H](C)Nc1nc(C)nc2c(-c3ccc(OC)nc3C)c(C)nn12 [PEXACERFONT]
4. CN(C)C(=O)Cn1cc(-c2ccc(-c3cncc4ccccc34)cc2)cn1
5. CCCCC1=NC2(CCCC2)C(=O)N1Cc1ccc(-c2ccccc2-c2nnn[nH]2)cc1 [IRBESARTAN]

Data returned:
1. 94
2. 90
3. 93
4. 92
5. 91

Dear colleague, could you please provide Population Normal (%) for the compounds listed below?
1. CC(/C=C1\SC(=S)N(CCCC(=O)Nc2ccc(C(=O)O)c(O)c2)C1=O)=C\c1ccccc1
2. Cc1onc(-c2ccccc2Cl)c1C(=O)N(C)c1ccc(Cl)cc1
3. O=C(NCCN1CCC(n2c(=O)[nH]c3cc(Cl)ccc32)CC1)c1ccc(F)cc1 [HALOPEMIDE]
4. CCCCC(=O)N(Cc1ccc(-c2ccccc2-c2nnn[nH]2)cc1)[C@H](C(=O)O)C(C)C
5. CCc1cc2cc(NS(=O)(=O)c3ccc(C#N)cc3)ccc2n(CC)c1=O
6. CC(C)(C)c1cc(NC(=O)Nc2ccc(-c3cn4c(n3)sc3cc(OCCN5CCOCC5)ccc34)cc2)no1 [QUIZARTINIB]
7. O=C(CCCc1ccccc1)Nc1nc2ccccc2c(=O)s1
8. CC(C)COc1ccc(CNC(=O)N(Cc2ccc(F)cc2)C2CCN(C)CC2)cc1 [PIMAVANSERIN]

Data returned:
1: 93; 2: 90; 3: 92; 4: 90; 5: 90; 6: 89; 7: 93; 8: 93

Hello, the source for this data is ChEMBL document CHEMBL5058577, in case you need it.
